Target: NS3 (Hepatitis C virus, UniProt A3EZJ3)
Peptide text beside a SMILES is read from it. * marks the point of attachment. X15 = CC1(C)[C@@H]2C[C@H]3OB([C@H](Cc4ccccc4)N*)O[C@@]3(C)[C@H]1C2; X12 = CC(C)CC[C@H](N*)B1O[C@@H]2C[C@@H]3C[C@@H](C3(C)C)[C@]2(C)O1
Reported Ki values are given for each entry in this list.
Supply the numeric figure in nM, leaving out any unit text.

COMPOUND	UNIT_TAG	Ki
Cc1ccc(CC[C@H](NC(=O)[C@@H]2CCCN2C(=O)[C@@H](NC(=O)[C@@H](NC(=O)[C@H](CCC(=O)O)NC(=O)[C@@H](N)CC(=O)O)C(C)C)C(C)C)B2O[C@@H]3C[C@@H]4C[C@@H](C4(C)C)[C@]3(C)O2)cc1	nM	17

Query block: I am curious: what Ki value has been reported for CC(C)[C@H](NC(=O)[C@H](CCC(=O)O)NC(=O)[C@@H](N)CC(=O)O)C(=O)N[C@H](C(=O)N1CCC[C@H]1C(=O)N[C@@H](CCc1ccc(Oc2ccccc2)cc1)B1O[C@@H]2C[C@@H]3C[C@@H](C3(C)C)[C@]2(C)O1)C(C)C ?
Result block: 3

Query block: Same question, CC(C)[C@H](NC(=O)[C@H](CCC(=O)O)NC(=O)[C@@H](N)CC(=O)O)C(=O)N[C@H](C(=O)N1CCC[C@H]1C(=O)N[C@@H](Cc1ccccc1)B1O[C@@H]2C[C@@H]3C[C@@H](C3(C)C)[C@]2(C)O1)C(C)C (H-DEVVP-X15) this time
Result block: 500

Query block: Same question, CC(C)[C@H](NC(=O)[C@H](CCC(=O)O)NC(=O)[C@@H](N)CC(=O)O)C(=O)N[C@H](C(=O)N1CCC[C@H]1C(=O)N[C@@H](CCCCc1ccccc1)B1O[C@@H]2C[C@@H]3C[C@@H](C3(C)C)[C@]2(C)O1)C(C)C this time
Result block: 10

Query block: Same question, CC(C)CC[C@H](NC(=O)[C@@H]1CCCN1C(=O)[C@@H](NC(=O)[C@@H](NC(=O)[C@H](CCC(=O)O)NC(=O)[C@@H](N)CC(=O)O)C(C)C)C(C)C)B1O[C@@H]2C[C@@H]3C[C@@H](C3(C)C)[C@]2(C)O1 (H-DEVVP-X12) this time
Result block: 39

Query block: Same question, CC[C@H](NC(=O)[C@@H]1CCCN1C(=O)[C@@H](NC(=O)[C@@H](NC(=O)[C@H](CCC(=O)O)NC(=O)[C@@H](N)CC(=O)O)C(C)C)C(C)C)B1O[C@@H]2C[C@@H]3C[C@@H](C3(C)C)[C@]2(C)O1 this time
Result block: 8
